Biological target: jojoba wax synthase (Simmondsia chinensis)
Construct: added to a microsomal membrane fraction having wax synthase activity; from tissue; host or cells: jojoba microsomal membrane fraction
Sequence (Q9XGY6 1-352): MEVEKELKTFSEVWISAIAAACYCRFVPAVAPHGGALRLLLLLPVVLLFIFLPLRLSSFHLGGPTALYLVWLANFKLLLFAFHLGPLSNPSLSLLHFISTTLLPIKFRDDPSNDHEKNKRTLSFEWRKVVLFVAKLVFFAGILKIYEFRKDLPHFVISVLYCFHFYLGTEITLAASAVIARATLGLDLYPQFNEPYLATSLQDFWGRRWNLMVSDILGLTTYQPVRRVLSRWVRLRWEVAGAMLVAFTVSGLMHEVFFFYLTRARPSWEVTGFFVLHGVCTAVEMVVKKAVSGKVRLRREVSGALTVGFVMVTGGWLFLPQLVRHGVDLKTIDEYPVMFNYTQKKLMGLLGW
Test: Wax synthase assay, microsomal membrane fraction
Type: biochemical
Details: 100 μM alcohol substrate, 40 μM radiolabeled eicosenoyl-CoA
Procedure: Wax synthase activity is measured by incubation of 40 μM [1-^14 C]acyl-CoA (usually palmitoyl-CoA, sp. act. 5.1-5.6 mCi/mmol) and 200 μM oleyl alcohol with the sample to be assayed in a total volume of 0.25 ml. The incubation mixture also contains 20% w/v glycerol, 1 mM DTT, 0.5M NaCl and is buffered with 25 mM HEPES (4-[2-hydroxyethyl]-1-piperazineethane-sulfonic acid). A substrate mixture is prepared in a glass vial, with oleyl alcohol being added immediately before use, and is added to samples. […]
Listing of recorded Wax synthase Activity, Alcohol Group by entry.

compoundString | Wax synthase Activity, Alcohol Group / pmol/min
CCCCCCCCCCCCCCCCCCCC(=O)SCCNC(=O)CCNC(=O)[C@H](O)C(C)(C)COP(=O)(O)OP(=O)(O)OC[C@H]1O[C@@H](n2cnc3c(N)ncnc32)[C@H](O)[C@@H]1OP(=O)(O)O | 21
CCCCCCCCCCCCCCCCCC(=O)SCCNC(=O)CCNC(=O)[C@H](O)C(C)(C)COP(=O)(O)OP(=O)(O)OC[C@H]1O[C@@H](n2cnc3c(N)ncnc32)[C@H](O)[C@@H]1OP(=O)(O)O | 56
CCCCCCCCCCCCCCCCCCCCCC(=O)SCCNC(=O)CCNC(=O)[C@H](O)C(C)(C)COP(=O)(O)OP(=O)(O)OC[C@H]1O[C@@H](n2cnc3c(N)ncnc32)[C@H](O)[C@@H]1OP(=O)(O)O | 17
CCCCCCCCCCCCCC(=O)SCCNC(=O)CCNC(=O)[C@H](O)C(C)(C)COP(=O)(O)OP(=O)(O)OC[C@H]1O[C@@H](n2cnc3c(N)ncnc32)[C@H](O)[C@@H]1OP(=O)(O)O | 145
CCCCCCCC/C=C\CCCCCCCCCCCC(=O)SCCNC(=O)CCNC(=O)[C@H](O)C(C)(C)COP(=O)(O)OP(=O)(O)OC[C@H]1O[C@@H](n2cnc3c(N)ncnc32)[C@H](O)[C@@H]1OP(=O)(O)O | 41
CCCCC/C=C\C/C=C\CCCCCCCC(=O)SCCNC(=O)CCNC(=O)[C@H](O)C(C)(C)COP(=O)(O)OP(=O)(O)OC[C@H]1O[C@@H](n2cnc3c(N)ncnc32)[C@H](O)[C@@H]1OP(=O)(O)O | 123
